- ASSAY_INFO: Luciferase activity of purified RLuc mutants (light output integrated over 10 s, luminometer)
- Format: biochemical
- CONDITIONS: coelenterazine-n; relative to native enzyme
MEASURE_NAME: Activity (relative to RLuc) n
Give the figure by itself; no unit, no explanation.

**Q:** Activity (relative to RLuc) n for C124A/A143M: RLuc mutant C124A/A143M (protein) MASKVYDPEQRKRMITGPQWWARCKQMNVLDSFINYYDSEKHAENAVIFLHGNAASSYLWRHVVPHIEPVARCIIPDLIGMGKSGKSGNGSYRLLDHYKYLTAWFELLNLPKKIIFVGHDWGAALAFHYSYEHQDKIKAIVHMESVVDVIESWDEWPDIEEDIALIKSEEGEKMVLENNFFVETMLPSKIMRKLEPEEFAAYLEPFKEKGEVRRPTLSWPREIPLVKGGKPDVVQIVRNYNAYLRASDDLPKMFIESDPGFFSNAIVEGAKKFPNTEFVKVKGLHFSQEDAPDEMGKYIKSFVERVLKNEQ ?
**A:** 1.5
